Biological target: recombinant rat GluN1/GluN2C receptors (NR2C) (Rattus norvegicus (Rat), UniProt P35439+Q00961)
Sequence (Q00961 20-1237, other chains not shown): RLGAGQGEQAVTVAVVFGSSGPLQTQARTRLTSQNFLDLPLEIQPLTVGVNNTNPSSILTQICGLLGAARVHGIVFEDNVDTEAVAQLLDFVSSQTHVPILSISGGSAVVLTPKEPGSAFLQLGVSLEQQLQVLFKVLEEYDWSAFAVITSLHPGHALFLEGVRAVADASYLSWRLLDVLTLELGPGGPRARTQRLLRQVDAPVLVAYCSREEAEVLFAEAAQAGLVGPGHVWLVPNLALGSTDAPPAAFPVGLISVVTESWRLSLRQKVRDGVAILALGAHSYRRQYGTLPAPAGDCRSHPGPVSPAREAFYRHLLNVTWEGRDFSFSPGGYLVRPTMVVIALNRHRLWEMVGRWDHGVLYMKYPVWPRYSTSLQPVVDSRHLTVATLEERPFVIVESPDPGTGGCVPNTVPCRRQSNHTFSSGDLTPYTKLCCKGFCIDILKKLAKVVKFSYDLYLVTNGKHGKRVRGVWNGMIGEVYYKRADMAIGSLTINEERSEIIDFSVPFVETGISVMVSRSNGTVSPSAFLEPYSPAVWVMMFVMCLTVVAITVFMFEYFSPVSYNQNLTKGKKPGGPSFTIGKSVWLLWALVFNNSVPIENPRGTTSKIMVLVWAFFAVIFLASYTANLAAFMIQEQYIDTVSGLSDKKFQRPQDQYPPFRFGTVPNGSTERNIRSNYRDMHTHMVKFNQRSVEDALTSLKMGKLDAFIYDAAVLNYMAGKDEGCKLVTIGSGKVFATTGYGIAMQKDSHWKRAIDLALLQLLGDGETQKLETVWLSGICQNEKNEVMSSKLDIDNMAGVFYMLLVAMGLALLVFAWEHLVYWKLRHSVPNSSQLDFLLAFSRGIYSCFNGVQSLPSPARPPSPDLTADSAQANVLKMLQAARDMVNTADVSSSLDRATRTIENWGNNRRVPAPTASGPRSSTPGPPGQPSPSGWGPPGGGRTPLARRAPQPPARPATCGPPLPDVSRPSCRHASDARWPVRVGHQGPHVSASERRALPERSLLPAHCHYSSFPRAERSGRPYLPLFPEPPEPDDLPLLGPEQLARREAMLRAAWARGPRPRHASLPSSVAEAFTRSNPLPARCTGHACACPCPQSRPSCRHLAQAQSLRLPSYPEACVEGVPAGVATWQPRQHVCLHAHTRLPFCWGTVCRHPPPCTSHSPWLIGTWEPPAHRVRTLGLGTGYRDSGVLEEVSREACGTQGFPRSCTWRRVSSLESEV
Assay: Two-electrode voltage-clamp recordings, Xenopus laevis oocytes, NR2C
Type: cell-based
Details: head prints IC50; method describes EC50 of potentiator
I'd appreciate it if you marked entries fulfilled when EC50 (potentiation) is lower than 9 µM and not fulfilled when it is not.

[
  {
    "compound": "COC(=O)c1ccc(C2C(C(C)=O)=C(O)C(=O)N2CCc2c[nH]c3ccccc23)c(O)c1 (stereo not shown)",
    "answer-label": "not fulfilled"
  }
]

EC50 (potentiation) strictly < 9 µM for this compound? CCOC(=O)c1ccc(C2C(C(C)=O)=C(O)C(=O)N2CCc2c(C)[nH]c3ccccc23)cc1 (stereo not shown) not fulfilled

* * *

Molecular target: recombinant rat GluN1/GluN2C receptors (NR2C) (Rattus norvegicus (Rat), UniProt P35439+Q00961)
Assay: Two-electrode voltage-clamp recordings, Xenopus laevis oocytes, NR2C
Type: cell-based
Conditions: head prints IC50; method describes EC50 of potentiator
Experimental: Two-electrode voltage-clamp recordings were made from Xenopus laevis oocytes expressing recombinant rat GluN1/GluN2A, GluN1/GluN2B, GluN1/GluN2C, GluN1/GluN2D, GluA1, or GluK2 receptors following injection of 5-10 ng of cRNA synthesized according to manufacturers' protocols (Ambin, mMessage, mMachine). cDNAs used were rat GluN1-1a (GenBank accession numbers U11418 and U08261; hereafter GluN1), GluN2A (D13211), GluN2B (U11419), GluN2C (M91563), GluN2D (L31611), GluA1 (X17184), GluK2 (Z11548). […]
I'd appreciate it if you marked entries t when EC50 (potentiation) is lower than 10 µM and f when it is not.

Look over these answered cases.
[
  {
    "molecule": "CCOC(=O)c1ccc(C2C(C(=O)c3ccncc3)=C(O)C(=O)N2CCc2c[nH]c3cc(C)ccc23)cc1 (centres unmarked)",
    "answer-label": "t"
  },
  {
    "molecule": "O=C(C1=C(O)C(=O)N(CCc2c[nH]c3ccccc23)C1c1cccs1)c1cccnc1 (centres unmarked)",
    "answer-label": "f"
  },
  {
    "molecule": "COC(=O)c1ccc(C2C(C(=O)c3ccncc3)=C(O)C(=O)N2CCc2c[nH]c3ccccc23)cc1 (centres unmarked)",
    "answer-label": "t"
  },
  {
    "molecule": "COC(=O)c1ccc(C2C(C(=O)c3cccnc3)=C(O)C(=O)N2CCc2c[nH]c3cc(Cl)ccc23)cc1 (centres unmarked)",
    "answer-label": "t"
  }
]

EC50 (potentiation) strictly < 10 µM for this molecule? COC(=O)c1ccc(C2C(C(=O)c3cccnc3)=C(O)C(=O)N2CCc2c[nH]c3cc(F)ccc23)cc1 (centres unmarked) f
